biological target: T1, human CCR8 (human, UniProt P51685 1-355); test: flow blocking, PBMC CCR8+CD4+; competitor PE-AB13
T1 construct: Native CCR8 on human PBMC (CCR8+ CD3+ or CCR8+ CD4+ lymphocytes); also called chemokine (C-C motif) receptor 8
T1 sequence (P51685 whole entry): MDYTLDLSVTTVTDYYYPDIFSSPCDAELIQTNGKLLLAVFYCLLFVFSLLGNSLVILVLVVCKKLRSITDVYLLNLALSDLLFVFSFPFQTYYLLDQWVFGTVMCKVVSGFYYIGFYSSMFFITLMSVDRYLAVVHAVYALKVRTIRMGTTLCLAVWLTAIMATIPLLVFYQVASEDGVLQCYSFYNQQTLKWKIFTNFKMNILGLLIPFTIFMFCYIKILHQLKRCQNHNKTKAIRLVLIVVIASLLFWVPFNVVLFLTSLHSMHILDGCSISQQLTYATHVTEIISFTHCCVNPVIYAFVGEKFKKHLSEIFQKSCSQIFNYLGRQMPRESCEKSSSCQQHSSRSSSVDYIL
OBSERVATION TYPE: % Positive cells (%)
# value in %; strip the unit string

Solved entries (count: 3):
[
  {
    "BINDER": "AB14 (antibody, V domains shown, Hybridoma monoclonal; Same VH/VL entries as AB15; also called antibody 14; clone 14) VH: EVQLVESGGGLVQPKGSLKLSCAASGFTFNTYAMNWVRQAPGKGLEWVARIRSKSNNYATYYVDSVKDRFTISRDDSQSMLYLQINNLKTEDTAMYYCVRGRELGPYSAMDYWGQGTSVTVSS VL: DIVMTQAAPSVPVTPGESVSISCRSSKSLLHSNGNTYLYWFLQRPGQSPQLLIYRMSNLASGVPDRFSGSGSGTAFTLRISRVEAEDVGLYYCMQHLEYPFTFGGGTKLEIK",
    "% Positive cells / %": 0.08
  },
  {
    "BINDER": "AB10 (antibody, V domains shown, Hybridoma monoclonal; also called antibody 10; clone 10) VH: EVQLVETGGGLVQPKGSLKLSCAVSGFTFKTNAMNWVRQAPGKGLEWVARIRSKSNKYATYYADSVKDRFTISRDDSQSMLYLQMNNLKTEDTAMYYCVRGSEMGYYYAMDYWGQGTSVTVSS VL: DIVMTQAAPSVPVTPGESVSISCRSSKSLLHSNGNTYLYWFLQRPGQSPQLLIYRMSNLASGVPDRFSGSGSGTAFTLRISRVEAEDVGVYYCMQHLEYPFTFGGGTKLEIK",
    "% Positive cells / %": 0.05
  },
  {
    "BINDER": "AB13 (antibody, V domains shown, Hybridoma monoclonal; also called antibody 13; clone 13) VH: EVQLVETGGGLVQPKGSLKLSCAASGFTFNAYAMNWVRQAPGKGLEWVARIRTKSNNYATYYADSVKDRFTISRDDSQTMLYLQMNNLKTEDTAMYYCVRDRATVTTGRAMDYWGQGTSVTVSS VL: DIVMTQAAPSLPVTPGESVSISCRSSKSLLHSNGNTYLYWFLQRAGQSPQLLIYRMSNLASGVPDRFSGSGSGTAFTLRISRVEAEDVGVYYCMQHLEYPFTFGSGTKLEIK",
    "% Positive cells / %": 0.09
  }
]

As a next step, examine the binder that follows.
# input binder: AB11 (antibody, V domains shown, Hybridoma monoclonal; also called antibody 11; clone 11) VH: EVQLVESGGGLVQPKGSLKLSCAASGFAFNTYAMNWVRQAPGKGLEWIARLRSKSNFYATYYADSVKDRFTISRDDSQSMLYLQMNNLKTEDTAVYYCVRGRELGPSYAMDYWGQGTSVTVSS VL: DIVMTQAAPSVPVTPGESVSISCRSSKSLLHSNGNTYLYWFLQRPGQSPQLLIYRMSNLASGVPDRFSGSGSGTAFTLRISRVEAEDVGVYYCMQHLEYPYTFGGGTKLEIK ; wanted: its % Positive cells 0.07

These data points were gathered from patent US20240360228A1.
